The reported measurements were obtained from patent US20230286973A1.

MEASUREMENT_PROTOCOL: Liver Microsome Stability Assay (human)
CONDITION_NOTES: human liver microsomes, with NADPH, 1.0 uM compound
Below, each entry is listed alongside its reported Liver Microsome Stability (Multiple Species): Human - % Remaining after 30 min w/NADPH.
METRIC: Liver Microsome Stability (Multiple Species): Human - % Remaining after 30 min w/NADPH (%)

{"columns": ["MOL", "RECORDED_NUMBER"],
 "data": [
  ["CC(C)n1cncc1/C=C/c1csc(NC(=O)c2cccn2Cc2ccncc2)n1", 17.5],
  ["CCc1cc(/C=C/c2csc(NC(=O)c3cccn3Cc3ccnc(F)c3)n2)no1", 0.4],
  ["O=C(Nc1nc([C@H]2CCCN2c2ccc(OC3CCN(C(=O)C(F)(F)F)CC3)cc2)cs1)c1cccn1Cc1ccnc(F)c1", 63.5]
]}

====

System: IL-2-FL/Gaussia Luciferase
MEASUREMENT_PROTOCOL: Dox Induced IL2-FL-Gluc Assay
Assay type: cell-based
CONDITION_NOTES: ratio of IL2FLGluc IC50 to PD1ssGluc IC50
Label true (1) for high-side 24 hr Dox Inducible IL2FLGluc 293FRT/TO: IL2/PD1 (at or above 3) and false (0) for low-side 24 hr Dox Inducible IL2FLGluc 293FRT/TO: IL2/PD1 (below it).

{"columns": ["COMPOUND", "ASSIGNED_CLASS"],
 "data": [
  ["Cc1coc(/C=C/c2csc(NC(=O)c3cccn3Cc3ccncc3)n2)n1 [Compound B41]", "true (1)"],
  ["O=C(Nc1nc([C@H]2CCCN2c2ccc(OC3CCSCC3)cc2)cs1)c1cccn1Cc1ccnc(F)c1 [Compound A170]", "false (0)"],
  ["NC(=O)N1CC(Oc2ccc(N3CCC[C@@H]3c3csc(NC(=O)c4cccn4Cc4ccnc(F)c4)n3)cc2)C1 [Compound A130]", "true (1)"],
  ["O=C(Nc1nc(/C=C/c2ncn3c2CCCC3)cs1)c1cccn1Cc1ccnc(F)c1 [Compound B86]", "true (1)"],
  ["Cc1ccc(N2CCC[C@@H]2c2csc(NC(=O)c3cccn3Cc3ccncc3)n2)cc1 [Compound A21]", "true (1)"],
  ["O=C(Nc1ccc(N2CCC[C@@H]2c2csc(NC(=O)c3cccn3Cc3ccnc(F)c3)n2)cc1)O[C@H]1CCOC1 [Compound A174]", "true (1)"],
  ["CC(=O)N1CCC(Oc2ccc(N3CCC[C@@H]3c3csc(NC(=O)c4cccn4Cc4ccnc(F)c4)n3)nc2)CC1 [Compound A154]", "false (0)"],
  ["O=C(Nc1nc(/C=C/c2c[nH]cn2)cs1)c1cccn1Cc1ccnc(F)c1 [Compound B114]", "true (1)"],
  ["C[C@H](N)c1ccc(N2CCC[C@@H]2c2csc(NC(=O)c3cccn3Cc3ccnc(F)c3)n2)cc1 [Compound A74]", "true (1)"],
  ["O=C(Nc1nc([C@H]2CCCN2c2ccc(OC3CCN(C(=O)CO)CC3)cc2)cs1)c1cccn1Cc1ccnc(F)c1 [Compound A139]", "false (0)"],
  ["CN(C)C(=O)N1CCC(Oc2ccc(N3CCC[C@@H]3c3csc(NC(=O)c4cccn4Cc4ccnc(F)c4)n3)cc2)CC1 [Compound A137]", "false (0)"]
]}

====

Test system: multiple myeloma cell line NCI-H929
MEASUREMENT_PROTOCOL: H929 Cell Viability Assay
Type: cell-based, human
CONDITION_NOTES: Homo sapiens, NCI-H929, 48 h, NCI-H929 cells, Celltiter-Glo
Below, each entry is listed alongside its reported EC50.
METRIC: EC50

{"columns": ["COMPOUND", "RESULT"],
 "data": [
  ["Cc1nc(/C=C/c2csc(NC(=O)c3cccn3Cc3ccncc3)n2)cn1C [Compound B51]", "> 25 µM"],
  ["O=C(Nc1nc(/C=C/c2cn(CCO)cn2)cs1)c1cccn1Cc1ccncc1 [Compound C114]", "> 25 µM"],
  ["Cc1cc(/C=C/c2csc(NC(=O)c3cccn3Cc3ccnc(F)c3)n2)no1 [Compound B88]", "> 25 µM"]
]}

====

MEASUREMENT_PROTOCOL: Liver Microsome Stability Assay (mouse)
CONDITION_NOTES: mouse liver microsomes, with NADPH, 1.0 uM compound
Below, each entry is listed alongside its reported Liver Microsome Stability (Multiple Species): Mouse - % Remaining after 30 min w/NADPH.
METRIC: Liver Microsome Stability (Multiple Species): Mouse - % Remaining after 30 min w/NADPH (%)

{"columns": ["COMPOUND", "VALUE_UNIT", "RECORDED_NUMBER"],
 "data": [
  ["CC(=O)N1CCC(C(C)c2ccc(N3CCC[C@@H]3c3csc(NC(=O)c4cccn4Cc4ccnc(F)c4)n3)cc2)CC1 (some centres unmarked)", "%", 0.42],
  ["CC(C)n1cc(/C=C/c2csc(NC(=O)c3cccn3Cc3ccnc(F)c3)n2)nc1C#N", "%", 12.7],
  ["Nc1ccc(N2CCC[C@@H]2c2csc(NC(=O)c3cccn3Cc3ccncc3)n2)cc1", "%", 7.28],
  ["CC(CC(N)=O)n1cnc(/C=C/c2csc(NC(=O)c3cccn3Cc3ccnc(F)c3)n2)c1 (centres unmarked)", "%", 61.7],
  ["NC(=O)Cn1cnc(/C=C/c2csc(NC(=O)c3cccn3Cc3ccnc(F)c3)n2)c1", "%", 70.7]
]}

====

Below, each entry is listed alongside its reported Liver Microsome Stability (Multiple Species): Monkey - % Remaining after 30 min w/NADPH.
MEASUREMENT_PROTOCOL: Liver Microsome Stability Assay (monkey)
CONDITION_NOTES: monkey liver microsomes, with NADPH, 1.0 uM compound
METRIC: Liver Microsome Stability (Multiple Species): Monkey - % Remaining after 30 min w/NADPH (%)

{"columns": ["COMPOUND", "RECORDED_NUMBER"],
 "data": [
  ["O=C(Nc1nc([C@H]2CCCN2c2cccnc2)cs1)c1cccn1Cc1ccncc1", 0.6],
  ["COc1ccc(O[C@@H]2CC[C@H](c3csc(NC(=O)c4cccn4Cc4ccncc4)n3)C2)nc1", 0.26],
  ["C[C@H](CC#N)Cn1cccc1C(=O)Nc1nc([C@H]2CCCN2c2ccccc2)cs1", 1.91],
  ["O=C(Nc1nc(/C=C/c2ncoc2C2CCCCC2)cs1)c1cccn1Cc1ccncc1", 10.8],
  ["CC(=O)N1CCC[C@@H](Oc2ccc(N3CCC[C@@H]3c3csc(NC(=O)c4cccn4Cc4ccnc(F)c4)n3)cc2)C1", 0.16],
  ["O=C(Nc1nc([C@H]2CCCN2c2ccc(CO)cc2)cs1)c1cccn1Cc1ccnc(F)c1", 1.3],
  ["O=C(Nc1nc(/C=C/c2ncoc2C2CCCCC2)cs1)c1cccn1CC1CCOCC1", 1.35],
  ["O=C(Nc1nc([C@H]2CCCN2c2ccccc2)cs1)c1cccn1Cc1ccc(=O)[nH]c1", 9.66],
  ["O=C(Nc1nc([C@H]2C[C@@H](OCCO)CN2c2ccccc2)cs1)c1cccn1Cc1ccncc1", 0.09],
  ["CC(=O)N1CCC(Oc2ccc(N3CCC[C@@H]3c3csc(NC(=O)c4cccn4Cc4ccnc(F)c4)n3)cc2)C(F)C1 (stereo partly shown)", 0.49],
  ["COC(=O)Nc1ccc(N2CCC[C@@H]2c2csc(NC(=O)c3cccn3Cc3ccnc(F)c3)n2)cc1", 10.7],
  ["O=C(Nc1nc([C@H]2CCCN2c2ccc(C3CCNCC3)cc2)cs1)c1cccn1Cc1ccncc1", 1.91],
  ["CCn1cnc(/C=C/c2csc(NC(=O)c3cccn3Cc3ccncc3)n2)c1", 0.04],
  ["CC(=O)N1CCC(C(C)c2ccc(N3CCC[C@@H]3c3csc(NC(=O)c4cccn4Cc4ccnc(F)c4)n3)cc2)CC1 (stereo partly shown)", 0.12],
  ["Cc1ocnc1/C=C/c1csc(NC(=O)c2cccn2Cc2ccncc2)n1", 1.26],
  ["O=C(Nc1nc(/C=C/C2CN(c3ccccc3)CCO2)cs1)c1cccn1Cc1ccncc1 (stereo not shown)", 0.38],
  ["CC(=O)N1CCC(Oc2c(F)cc(N3CCC[C@@H]3c3csc(NC(=O)c4cccn4Cc4ccnc(F)c4)n3)cc2F)CC1", 0.35],
  ["CC(C)n1cc(/C=C/c2csc(NC(=O)c3cccn3Cc3ccnc(F)c3)n2)nc1CO", 1.64],
  ["Cc1nc(/C=C/c2csc(NC(=O)c3cccn3Cc3ccncc3)n2)co1", 0.9]
]}

====

System: TNFα-FL/Gaussia Luciferase
MEASUREMENT_PROTOCOL: Dox Induced TNFα-FL-Gluc Assay
Type: cell-based
CONDITION_NOTES: ratio of TNFaFLGluc IC50 to PD1ssGluc IC50
METRIC: 24 hr Dox Inducible TNFaFLGluc 293FRT/TO: TNF/PD1

{"columns": ["COMPOUND", "RESULT"],
 "data": [
  ["NC(=O)CCn1cnc(/C=C/c2csc(NC(=O)c3cccn3Cc3ccnc(F)c3)n2)c1 [Compound B109]", "<=>1.00"],
  ["O=C1CCCC(/C=C/c2csc(NC(=O)c3cccn3Cc3ccncc3)n2)N1 (stereo not drawn) [Compound B13]", "<=>1.00"],
  ["N#CCCn1cnc(/C=C/c2csc(NC(=O)c3cccn3Cc3ccnc(F)c3)n2)c1 [Compound B108]", ">4.14"]
]}
